Where these numbers come from: the supplement of paper PMC12764529

# test name: folding stability dG unfold (combined trypsin and chymotrypsin); higher = more stable
test readout: folding stability dG unfold (kJ/mol)
Answer in kJ/mol, number only, no unit symbol.

macromolecule sequence	measurement
SAMVITTSLEEARKRTGLSESASPEEVRAAVEALIAAETAAGVTLLAIELLEVGDTWTLRVEIERAGGVSAG [r14_158_JUSTAS]	8.66

### Prompt Request the reported folding stability dG unfold associated with SAGGSAGGSAKEIEVRVEKDEETGKYRVTIRVDGKEIEIEVDVPKTLEEAERKAKELLKELSAGGSAGGSAG [r3_104_TrROS_Hall]
### Response 11.1

### Prompt I am curious: what folding stability dG unfold value has been reported for SAGGPVFLGFEEALEFIEKAFENGEDVVVVARLPDGGLVVLEASGPDLDLRVVAVIPLPPPEEDPEKYSAGG [r13_839_TrMRF] ?
### Response 4.3

* * *

# test name: folding stability dG unfold (combined trypsin and chymotrypsin); higher = more stable
Assign class by folding stability dG unfold: not lower than 3 kJ/mol means Criterion met; lower than 3 kJ/mol means Criterion not met.

Before answering, review these 4 worked examples.
macromolecule sequence	assigned label
SAGGSAKPEPIKIEIGPGGNRFKATFPNGDEADVDVVKDGDKTYLLITVTSPDGKPRPFKIPLEKLSAGGSA [r15_941_TrMRF]	Criterion met
SAGGSAGGSAGGSMATITPEGDKYLVTITNPDGSTTTKEFDSLEEVKKLPSSYPIEFSDSAGGSAGGSAGGS [r4_447_JUSTAS]	Criterion met
SAGGSAGGKAKIKKIEVELNEDGTLKVTAYDEETNEKITLEVKLPKPKPVYFDEEKLKEELEKKSAGGSAGG [r6_627_TrROS_Hall]	Criterion not met
SAGGSAGGSAGMVYITKGKDGIWYEAEVDPTKPGAKVKVRHPLTGKEEEITPAEVVAVPPSAGGSAGGSAGG [r11_822_TrMRF]	Criterion not met

### Prompt State whether the measured folding stability dG unfold reaches 3 kJ/mol, counting equality as reaching it, for SAIKLPDGFEIKEVEFTPDGNVTIKIEVKKYSFMIYNPDNGQIQHIPPGKEQEITMPPNEPMRIWVIKPSAG [r14_385_TrROS]
### Response Criterion met

### Prompt Say whether PWRPIMITVRANPNLKVDIYPPNGPQEEIPVDSPEDALKKAQKLLPPNYPIMVKVQNEGKPIATFPFWIPPS [r1_276_TrROS] shows folding stability dG unfold of 3 kJ/mol or more.
### Response Criterion met

### Prompt Tell me whether folding stability dG unfold is at least 3 kJ/mol here: SAGGSAGGSAGGIEELAKKYPNIKIVEVKTVKVTETNKDGKKTEKTKTEIKIYKDGEEISAGGSAGGSAGGS [r10_0_TrROS_Hall]
### Response Criterion not met

* * *

# test name: folding stability dG unfold from trypsin proteolysis; higher = more stable
test readout: folding stability dG unfold (kcal/mol)
Report the figure in kcal/mol without appending any unit label.

Some solved entries appear below for comparison.
macromolecule sequence	reading unit	folding stability dG unfold
SAGGSAGGGMTAEELAAKAIEEALKAGETVTVEIEVTNPNGETFTLELTLVVVDPDDPEALEALSAGGSAGG [r6_534_TrROS_Hall]	kcal/mol	1.64
SAGGSAGGSPSEEARKKGGLTLTITLRYPDGSTVTITYPVSTPLTIPEEFAKNPPKIESIELSSAGGSAGGS [r12_161_JUSTAS]	kcal/mol	1.23
SAGGKIKIKINGKTYTVEDAEIIEVKKNKNGKKEIIIKIKVNGKTYEIVISEEDLKKIKPGDTITLKSAGGS [r16_638_TrROS_Hall]	kcal/mol	2.4

### Prompt Quick one: folding stability dG unfold for SAGGGVPLTRSEPLGEIEFPEENIKLKISRYTSPLDGTEYIEITTDYGEGTSTSIYPPGEIEEILGGSAGGS [r16_603_JUSTAS] ?
### Response 0.666
